The reported numbers originate from patent EP1614683B1.

Let's look at some compounds and their measured inhibition at 1 µM.
# tested.on: LCK tyrosine kinase (Homo sapiens, UniProt P06239, C224D/P223M)
# Sequence (P06239 223-509 P223M/C224D): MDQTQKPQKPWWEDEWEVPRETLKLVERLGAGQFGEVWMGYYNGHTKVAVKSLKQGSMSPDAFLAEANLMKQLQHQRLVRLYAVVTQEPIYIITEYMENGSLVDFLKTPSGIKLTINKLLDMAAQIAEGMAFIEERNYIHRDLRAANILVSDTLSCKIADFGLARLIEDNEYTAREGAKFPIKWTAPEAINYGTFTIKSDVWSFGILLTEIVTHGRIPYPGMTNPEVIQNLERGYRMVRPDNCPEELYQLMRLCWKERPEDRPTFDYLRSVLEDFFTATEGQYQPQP
# method.notes: LCK spectrophotometric assay
# Assay type: biochemical
# run.conditions: Table 1; compound concentration 1 µM; read-out: Lck-P* (% inhibition)
Write the value in % as a bare number.

Here are 3 compounds together with their reported answers.
Query: Give recorded inhibition at 1 µM with LCK tyrosine kinase (Homo sapiens, UniProt P06239, C224D/P223M) for the following compound: Cc1ccc(C(=O)c2ccc3c(/C=C/c4ccccn4)n[nH]c3c2)cc1N [Reference Example 40(b)]
Result: 32

Query: Ok, now O=C(N/N=C/C(F)(F)F)c1ccccc1Sc1ccc2c(/C=C/c3ccccn3)n[nH]c2c1 [Reference Example 36(c)]
Result: 28

Query: Ok, now CS(=O)(=O)c1ccc(C(=O)Nc2cccc(Oc3ccc4c(/C=C/c5ccccn5)n[nH]c4c3)c2)s1 [Reference Example 31(c)]
Result: 81

More entries:
Query: Give recorded inhibition at 1 µM with LCK tyrosine kinase (Homo sapiens, UniProt P06239, C224D/P223M) for the following compound: `O=C(Cc1ccccn1)Nc1cccc(C(=O)c2ccc3c(/C=C/c4ccccc4)n[nH]c3c2)c1`
Result: 19

Query: Ok, now `O=C(c1cccc(NC(=O)c2ccccn2)c1)c1ccc2c(/C=C/c3ccccc3)n[nH]c2c1`
Result: 37

Query: Ok, now CC(C)COC(=O)Nc1cccc(C(=O)c2ccc3c(/C=C/c4ccccn4)n[nH]c3c2)c1 [Reference Example 41(y)]
Result: 61

Query: Ok, now Cc1cc(C(=O)Nc2cccc(C(=O)c3ccc4c(/C=C/c5ccccn5)n[nH]c4c3)c2)n[nH]1 [Reference Example 41(g)]
Result: 36

Query: Ok, now CCn1nc(C)cc1C(=O)Nc1cccc(Oc2ccc3c(/C=C/c4c[nH]c(C)n4)n[nH]c3c2)c1 [Reference Example 32(c)]
Result: 52

Query: Ok, now O=C(c1cccc(NC(=O)C2CC2)c1)c1ccc2c(/C=C/c3ccccn3)n[nH]c2c1 [Reference Example 41(k)]
Result: 20

Query: Ok, now `CN(c1cccc(NC(=O)c2cccc(C(F)(F)F)c2)c1)c1ccc2c(/C=C/c3ccc4c(c3)OCO4)n[nH]c2c1`
Result: 33

Query: Ok, now `O=C(Nc1cccc(C(=O)c2ccc3c(/C=C/c4ccccc4)n[nH]c3c2)c1)c1ccncc1`
Result: 23

====

# run.conditions: mouse, in vivo, ip, 25 mg/kg, pH 2.3
measure.name: AUCleast (ng·h/mL)
Write the value in ng·h/mL as a bare number.

Here are 3 compounds together with their reported answers.
Query: // returns reported AUCleast for input Cn1cccc1C(=O)NNC(=O)c1ccccc1Sc1ccc2c(/C=C/c3ccccn3)n[nH]c2c1 [35 (e)]
Result: 2409

Query: Ok, now `Cc1ccc(CNC(=O)c2ccccc2Sc2ccc3c(/C=C/c4ccccn4)n[nH]c3c2)o1`
Result: 59

Query: Ok, now `Cc1cc(C(=O)Nc2cccc(C(=O)c3ccc4c(/C=C/c5ccccn5)n[nH]c4c3)c2)on1`
Result: 1864

More entries:
Query: // returns reported AUCleast for input `O=C(Nc1cccc(C(=O)c2ccc3c(-c4nc5ccccc5[nH]4)n[nH]c3c2)c1)c1ccccc1`
Result: 3207

Query: Ok, now `CCn1nc(C)cc1C(=O)Nc1cc(Nc2ccc3c(/C=C/c4ccccn4)n[nH]c3c2)c(F)cc1C`
Result: 27000

Query: Ok, now C=C(C)CNC(=O)c1ccccc1Sc1ccc2c(/C=C/c3ccccn3)n[nH]c2c1 [35 (ee)]
Result: 546

Query: Ok, now `CC(C)ONC(=O)c1ccccc1Sc1ccc2c(/C=C/c3ccccn3)n[nH]c2c1`
Result: 2640

====

# tested.on: human CHK1 (FL-CHK1) (Homo sapiens, UniProt O14757)
# Construct: C-terminally His-tagged full-length human CHK1 (FL-CHK1) was expressed using the baculovirus/insect cell system; made in house; host or cells: baculovirus/insect cell system
# Sequence (O14757 whole entry): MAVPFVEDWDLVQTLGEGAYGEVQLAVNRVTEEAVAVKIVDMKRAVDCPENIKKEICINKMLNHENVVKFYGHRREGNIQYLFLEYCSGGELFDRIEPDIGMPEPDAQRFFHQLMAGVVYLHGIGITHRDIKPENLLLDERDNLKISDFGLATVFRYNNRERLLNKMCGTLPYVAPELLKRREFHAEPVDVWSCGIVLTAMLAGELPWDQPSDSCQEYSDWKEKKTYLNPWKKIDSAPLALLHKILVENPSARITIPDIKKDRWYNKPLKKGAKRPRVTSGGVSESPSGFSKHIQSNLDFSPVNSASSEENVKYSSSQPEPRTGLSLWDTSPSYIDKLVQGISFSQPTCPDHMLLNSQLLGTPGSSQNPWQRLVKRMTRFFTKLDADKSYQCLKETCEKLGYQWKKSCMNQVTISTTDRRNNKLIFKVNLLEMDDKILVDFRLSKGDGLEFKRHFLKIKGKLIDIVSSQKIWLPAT
# method.notes: CHK1 coupled spectrophotometric assay
# Format: biochemical
# run.conditions: Table 1; read-out: CHK -1* (Ki)
measure.name: Ki (nM)
Write the value in nM as a bare number.

Query: // returns reported Ki for input COc1cc(-c2ccc3c(-c4cc5ccccc5[nH]4)n[nH]c3c2)ccc1O [2(d)]
Result: 91

More entries:
Query: // returns reported Ki for input Brc1cccc(Oc2ccc3c(/C=C/c4ccccc4)n[nH]c3c2)c1 [8(d), 6-(3-Bromo-phenoxy)-3-styryl-1H-indaxole]
Result: 82

====

# run.conditions: PO, 25 mg/kg, vehicle PEG400:H2O pH 2.3 30:70
Let's look at some compounds and their measured T1/2.

Here are 3 compounds together with their reported answers.
Query: // returns reported T1/2 for input CCn1nc(C)cc1C(=O)Nc1cccc(Oc2ccc3c(/C=C/c4ccccn4)n[nH]c3c2)c1 [Reference Example 31(d)]
Result: 1.9 h

Query: Ok, now C=CCn1nc(C)cc1C(=O)Nc1cccc(C(=O)c2ccc3c(/C=C/c4ccccn4)n[nH]c3c2)c1 [41 (t)]
Result: 4.0 h

Query: Ok, now COc1cc(C(=O)Nc2cccc(C(=O)c3ccc4c(/C=C/c5ccccn5)n[nH]c4c3)c2)cc(Cl)n1 [41 (u)]
Result: 5.6 h

More entries:
Query: // returns reported T1/2 for input CCn1nc(C)cc1C(=O)Nc1cccc(Oc2ccc3c(/C=C/c4cn(C)c(C)n4)n[nH]c3c2)c1 [Reference Example 31(f)]
Result: 2.6 h

Query: Ok, now CCn1nc(C)cc1C(=O)Nc1cccc(Oc2ccc3c(/C=C/c4c[nH]cn4)n[nH]c3c2)c1 [Reference Example 32(b)]
Result: 2.1 h

Query: Ok, now CN(O)C(=O)c1ccccc1Sc1ccc2c(/C=C/c3ccccn3)n[nH]c2c1 [35 (o)]
Result: 1.0 h

Query: Ok, now Cn1ccnc1C(=O)Nc1cccc(Oc2ccc3c(/C=C/c4ccccn4)n[nH]c3c2)c1 [Reference Example 31(e)]
Result: 13.1 h

====

# method.notes: in vitro
# Format: in vitro ADME, human
# run.conditions: human, microsomes
measure.name: remaining at 2 h, 5 µM (%)
Write the value in % as a bare number.

Query: // returns reported remaining at 2 h, 5 µM for input `CN(c1cccc(NC(=O)c2ccccc2)c1)c1ccc2c(/C=C/c3ccccc3)n[nH]c2c1`
Result: 29

====

# tested.on: human CHK1 (FL-CHK1) (Homo sapiens, UniProt O14757)
# Construct: C-terminally His-tagged full-length human CHK1 (FL-CHK1) was expressed using the baculovirus/insect cell system; made in house; host or cells: baculovirus/insect cell system
# method.notes: CHK1 coupled spectrophotometric assay
# Format: biochemical
# run.conditions: read-out: CHK -1* (% inhibition)
measure.name: inhibition at 1 µM
Please report the result as a number followed by the unit.

Query: // returns reported inhibition at 1 µM for input CCCn1nc(C)cc1C(=O)Nc1cccc(C(=O)c2ccc3c(/C=C/c4ccccn4)n[nH]c3c2)c1 [Reference Example 41(r)]
Result: 0%

Query: Ok, now CCn1nc(C)cc1C(=O)Nc1cccc(C(=O)c2ccc3c(/C=C/c4ccccn4)n[nH]c3c2)c1 [Reference Example 41(a)]
Result: 0%

Query: Ok, now CCn1nc(C)cc1C(=O)Nc1cccc(Oc2ccc3c(/C=C/c4ccccn4)n[nH]c3c2)c1 [Reference Example 31(d)]
Result: 0%

More entries:
Query: // returns reported inhibition at 1 µM for input O=C(NNc1ccccn1)c1ccccc1Sc1ccc2c(/C=C/c3ccccn3)n[nH]c2c1 [Reference Example 35(n)]
Result: 23%

Query: Ok, now CCn1nc(C)cc1C(=O)Nc1cc(C(=O)c2ccc3c(/C=C/c4ccccn4)n[nH]c3c2)ccc1C [Reference Example 41(ee)]
Result: 0%

Query: Ok, now CCONC(=O)c1ccccc1Sc1ccc2c(/C=C/c3ccccn3)n[nH]c2c1 [Reference Example 35(dd)]
Result: 0%

Query: Ok, now C=CCn1nc(C)cc1C(=O)Nc1cccc(C(=O)c2ccc3c(/C=C/c4ccccn4)n[nH]c3c2)c1 [Reference Example 41(t)]
Result: 0%

====

# run.conditions: mouse, in vivo, po, 50 mg/kg, pH 2.3
measure.name: AUCleast

Here are 8 compounds together with their reported answers.
Query: // returns reported AUCleast for input `O=C(c1cccc(NC(=O)c2ccccn2)c1)c1ccc2c(/C=C/c3ccccn3)n[nH]c2c1`
Result: 289 ng·h/mL

Query: Ok, now CCOCCNC(=O)c1ccccc1Sc1ccc2c(/C=C/c3ccccn3)n[nH]c2c1 [35 (z)]
Result: 1001 ng·h/mL

Query: Ok, now `CC(C)NC(=O)c1ccccc1Sc1ccc2c(/C=C/c3ccccn3)n[nH]c2c1`
Result: 4048 ng·h/mL

Query: Ok, now `CC(C)ONC(=O)c1ccccc1Sc1ccc2c(/C=C/c3ccccn3)n[nH]c2c1`
Result: 5529 ng·h/mL

Query: Ok, now `Cc1cc(C(=O)Nc2cccc(C(=O)c3ccc4c(/C=C/c5ccccn5)n[nH]c4c3)c2)on1`
Result: 9 ng·h/mL

Query: Ok, now `O=C(Nc1nccs1)c1ccccc1Sc1ccc2c(/C=C/c3ccccn3)n[nH]c2c1`
Result: 58 ng·h/mL

Query: Ok, now O=C(NC1CC1)c1ccccc1Sc1ccc2c(/C=C/c3ccccn3)n[nH]c2c1 [33 (e)]
Result: 13290 ng·h/mL

Query: Ok, now `CCNC(=O)c1ccccc1Sc1ccc2c(/C=C/c3ccccn3)n[nH]c2c1`
Result: 3516 ng·h/mL

More entries:
Query: // returns reported AUCleast for input `Cc1cc(C(=O)Nc2cccc(C(=O)c3ccc4c(/C=C/c5ccccn5)n[nH]c4c3)c2)n[nH]1`
Result: 508 ng·h/mL

Query: Ok, now `O=C(Nc1cccc(C(=O)c2ccc3c(/C=C/c4ccccn4)n[nH]c3c2)c1)c1ccncc1`
Result: 759 ng·h/mL

Query: Ok, now `O=C(Nc1cccc(C(=O)c2ccc3c(/C=C/c4ccccn4)n[nH]c3c2)c1)c1ccccc1`
Result: 8384 ng·h/mL

Query: Ok, now Cn1cccc1C(=O)NNC(=O)c1ccccc1Sc1ccc2c(/C=C/c3ccccn3)n[nH]c2c1 [35 (e)]
Result: 1503 ng·h/mL

Query: Ok, now `O=C(NCC1CC1)c1ccccc1Sc1ccc2c(/C=C/c3ccccn3)n[nH]c2c1`
Result: >2946 ng·h/mL

Query: Ok, now CCCn1nc(C)cc1C(=O)Nc1cccc(C(=O)c2ccc3c(/C=C/c4ccccn4)n[nH]c3c2)c1 [41 (r)]
Result: > 17789 ng·h/mL

Query: Ok, now `O=C(Nc1cccc(C(=O)c2ccc3c(/C=N/n4cccc4)n[nH]c3c2)c1)c1ccccc1`
Result: 1636 ng·h/mL

Query: Ok, now `C#CCNC(=O)c1ccccc1Sc1ccc2c(/C=C/c3ccccn3)n[nH]c2c1`
Result: 1718 ng·h/mL

Query: Ok, now `O=C(NCc1ccccc1F)c1ccccc1Sc1ccc2c(/C=C/c3ccccn3)n[nH]c2c1`
Result: 358 ng·h/mL
